assay: recombinant barcode read abundance after kanamycin selection (control-corrected) (log10(CPM+1)); higher = more efficient recombination; sequences stand for … in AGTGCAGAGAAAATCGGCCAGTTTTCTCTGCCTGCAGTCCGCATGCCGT…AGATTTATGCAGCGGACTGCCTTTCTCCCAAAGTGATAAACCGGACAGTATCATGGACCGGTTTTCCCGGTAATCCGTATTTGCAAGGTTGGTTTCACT; site = the 11-nt target
READOUT_NAME: recombinant barcode read abundance (log10)

[[record]]
sequence_code = "CTACTAGCTTGGGTTCTAACCTGTTGCAC (site CTACTAGCTGT)"
observed = 1.66

[[record]]
sequence_code = "TACACTACTTGGGTTCTAACCTGTTGCCG (site TACACTACTCG)"
observed = 0.177

[[record]]
sequence_code = "TCGAATGCTTGGGTTCTAACCTGTTGCCT (site TCGGATGCTAA)"
observed = 0.0663

[[record]]
sequence_code = "GCATCTCCTTGGGTTCTAACCTGTTGCCT (site GCATCTCCTAG)"
observed = 1.06


---

recombinant barcode read abundance (log10) values, listed per item
experiment: recombinant barcode read abundance after kanamycin selection (control-corrected) (log10(CPM+1)); higher = more efficient recombination; sequences stand for … in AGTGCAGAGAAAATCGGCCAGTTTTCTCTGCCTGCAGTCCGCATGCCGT…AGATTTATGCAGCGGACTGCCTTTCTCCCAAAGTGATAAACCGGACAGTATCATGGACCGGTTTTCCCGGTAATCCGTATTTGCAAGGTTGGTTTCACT; site = the 11-nt target
READOUT_NAME: recombinant barcode read abundance (log10)

[[record]]
sequence_code = "CCTCGCACTTGGGTTCTAACCTGTTGCCT (site CGTCGCACTAG)"
observed = 0.133

[[record]]
sequence_code = "ACATGTCCTTGGGTTCTAACCTGTTGCGT (site ACATGTCCTAA)"
observed = 0.141

[[record]]
sequence_code = "CCTGGAGCTTGGGTTCTAACCTGTTGCAT (site CCTGGAACTAA)"
observed = 0.266

[[record]]
sequence_code = "CAGTCTACTTGGGTTCTAACCTGTTGCGT (site TCAAGCCCTCT)"
observed = 0.292

[[record]]
sequence_code = "ATTTAAGCTTGGGTTCTAACCTGTTGCCT (site ATTTAAGCTAG)"
observed = 0.498

[[record]]
sequence_code = "CTCGTAGCTTGGGTTCTAACCTGTTGCCT (site CTCGTAGCTAG)"
observed = 0.651

[[record]]
sequence_code = "TCCGATACTTGGGTTCTAACCTGTTGCGT (site GTGTGGCCTTG)"
observed = 0.11

[[record]]
sequence_code = "CTTCAGACTTGGGTTCTAACCTGTTGCTA (site CCTCAGACTTC)"
observed = 0.0983

[[record]]
sequence_code = "CGGGAAGCTTGGGTTCTAACCTGTTGCCT (site CGGGGAGCTCG)"
observed = 0.287

[[record]]
sequence_code = "GACCGAGCTTGGGTTCTAACCTGTTGCCT (site GACCGCGCTAG)"
observed = 0.0201

[[record]]
sequence_code = "ACGCGGACTTGGGTTCTAACCTGTTGCCT (site ACGCGGACTAG)"
observed = 1.21

[[record]]
sequence_code = "CTAGTGGCTTGGGTTCTAACCTGTTGCCG (site TCGTCACCTAT)"
observed = 0.0446

[[record]]
sequence_code = "CGCCCTCCTTGGGTTCTAACCTGTTGCAT (site CGCCATCCTAT)"
observed = 0.0837

[[record]]
sequence_code = "ACATGTGCTTGGGTTCTAACCTGTTGCAG (site ACATGGGCTCG)"
observed = 0.0637

[[record]]
sequence_code = "CGATGACCTTGGGTTCTAACCTGTTGCAT (site CGATGGCCTAT)"
observed = 0.107

[[record]]
sequence_code = "CTTCGTCCTTGGGTTCTAACCTGTTGCCT (site CTTCGTCCTAC)"
observed = 0.0309

[[record]]
sequence_code = "GGCAAGACTTGGGTTCTAACCTGTTGCCT (site GGGAAGACTAG)"
observed = 0.154

[[record]]
sequence_code = "ACTACCTCTTGGGTTCTAACCTGTTGCCT (site ACTACCTCTAG)"
observed = 1.35

[[record]]
sequence_code = "TCCTATGCTTGGGTTCTAACCTGTTGCTA (site CAAGTGACTAG)"
observed = 0.0648

[[record]]
sequence_code = "GACCTGGCTTGGGTTCTAACCTGTTGCCG (site GACCTGGCTCG)"
observed = 0.886

[[record]]
sequence_code = "CCGTATGCTTGGGTTCTAACCTGTTGCCT (site CCGGATGCTAG)"
observed = 0.0205

[[record]]
sequence_code = "CAATCACCTTGGGTTCTAACCTGTTGCTT (site CAAACACCTAA)"
observed = 0.109

[[record]]
sequence_code = "GTAAGAACTTGGGTTCTAACCTGTTGCAG (site GTAAGTCCTCT)"
observed = 0.544

[[record]]
sequence_code = "GGCGCATCTTGGGTTCTAACCTGTTGCCT (site GGCGCATCTAG)"
observed = 0.417

[[record]]
sequence_code = "GTCAAGACTTGGGTTCTAACCTGTTGCCG (site GTCAAGACTTG)"
observed = 0.462

[[record]]
sequence_code = "ACCAATTCTTGGGTTCTAACCTGTTGCCT (site ACCAATGCTAG)"
observed = 0.0727

[[record]]
sequence_code = "ATGATACCTTGGGTTCTAACCTGTTGCCT (site AAGATACCTAG)"
observed = 0.157

[[record]]
sequence_code = "ATCAGTACTTGGGTTCTAACCTGTTGCCT (site ATCAGTACTAG)"
observed = 0.307

[[record]]
sequence_code = "CTAAGCCCTTGGGTTCTAACCTGTTGCGG (site CTAAGCCCTCC)"
observed = 1.99


---

# recombinant UMI read abundance (log10) listing for each entry below
assay: recombinant UMI read abundance after kanamycin selection (control-corrected) (log10(CPM+1)); higher = more efficient recombination; extreme values may be limits of the assay; sequences stand for … in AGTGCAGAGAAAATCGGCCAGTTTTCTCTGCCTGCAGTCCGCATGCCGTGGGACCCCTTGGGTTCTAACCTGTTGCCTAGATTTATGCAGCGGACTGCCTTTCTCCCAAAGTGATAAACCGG…AGGTTGGTTTCACT; site = the 11-nt donor
READOUT_NAME: recombinant UMI read abundance (log10)

[[record]]
sequence_code = "AAGCTCACATGGACCGGTTTTCCCGGTAATCCGTATTTGAT (site TAGCTCACTAT)"
observed = 1.55

[[record]]
sequence_code = "ACTAGAACATGGACCGGTTTTCCCGGTAATCCGTATTTGAC (site ACTAGAACTTT)"
observed = 0.322

[[record]]
sequence_code = "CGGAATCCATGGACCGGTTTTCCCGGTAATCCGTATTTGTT (site CAGAATACTAA)"
observed = 0

[[record]]
sequence_code = "CGTTACACATGGACCGGTTTTCCCGGTAATCCGTATTTGAG (site CGTTAAACTCT)"
observed = 0.00268

[[record]]
sequence_code = "CCCATATCATGGACCGGTTTTCCCGGTAATCCGTATTTGTG (site CCCATATCTTA)"
observed = 0.0103

[[record]]
sequence_code = "CGATAATCATGGACCGGTTTTCCCGGTAATCCGTATTTGCG (site CGATCATCTAG)"
observed = 0

[[record]]
sequence_code = "TGGACATCATGGACCGGTTTTCCCGGTAATCCGTATTTGCT (site TGGACATCTAG)"
observed = 1.69

[[record]]
sequence_code = "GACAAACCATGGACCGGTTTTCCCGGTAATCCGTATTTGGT (site GACTAACCTAC)"
observed = 0

[[record]]
sequence_code = "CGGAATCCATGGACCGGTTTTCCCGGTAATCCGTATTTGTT (site CGGAATGCTAC)"
observed = 0


---

test: recombinant UMI read abundance after kanamycin selection (control-corrected) (log10(CPM+1)); higher = more efficient recombination; extreme values may be limits of the assay; sequences stand for … in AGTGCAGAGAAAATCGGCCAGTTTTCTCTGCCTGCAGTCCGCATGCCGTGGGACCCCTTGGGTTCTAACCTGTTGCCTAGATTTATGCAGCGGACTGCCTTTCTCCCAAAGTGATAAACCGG…AGGTTGGTTTCACT; site = the 11-nt donor
Below is a list of entries, each paired with its recorded recombinant UMI read abundance (log10) value.
READOUT_NAME: recombinant UMI read abundance (log10)

[[record]]
sequence_code = "CGCAATCCATGGACCGGTTTTCCCGGTAATCCGTATTTGGT (site CGCAATCCTAC)"
observed = 0.135

[[record]]
sequence_code = "CAGTCGACATGGACCGGTTTTCCCGGTAATCCGTATTTGCG (site CAGTCGACTCT)"
observed = 0.00924

[[record]]
sequence_code = "ATTGGGACATGGACCGGTTTTCCCGGTAATCCGTATTTGGT (site ATTGCGACTAC)"
observed = 0.021

[[record]]
sequence_code = "GGTATGTCATGGACCGGTTTTCCCGGTAATCCGTATTTGTT (site GGTAGGTCTAA)"
observed = 0.00327

